# System: SB.msgc-1
# Assay Info: area under the dose-response curve of % viability (trapezoidal, 11 doses) (% viability x log10 concentration); higher = less cytotoxic
# Condition Set: SB.msgc-1 (sporadic gastric cancer)
Values of area under the dose-response curve greater than or equal to 500 map to 1; values below map to 0.

INSERT INTO measurements (compound, group) VALUES
  ('Nc1nc(F)nc2c1ncn2[C@@H]1O[C@H](COP(=O)(O)O)[C@@H](O)[C@@H]1O [Fludarabine phosphate] (top concentration 46.0829 µM)', 1),
  ('CN[S+](=O)([O-])Cc1ccc2[nH]cc(CCN(C)C)c2c1 [Sumatriptan succinate] (top concentration 46.0829 µM)', 1),
  ('C[N]1C=NC=C1[C@@](N)(C2=CC=C(Cl)C=C2)C3=CC=C4N(C)C(=O)\C=C(\C5=CC=CC(=C5)Cl)C4=C3 [Tipifarnib] (top concentration 46.0829 µM)', 0),
  ('COC(=O)Nc1ccc(-c2nc(N3CCOCC3)c3cnn(C4CCN(Cc5cccnc5)CC4)c3n2)cc1 [WYE-687] (top concentration 46.0829 µM)', 0),
  ('Cc1coc2c1C(=O)C(=O)c1c-2ccc2c(C)cccc12 [Tanshinone I] (top concentration 46.0829 µM)', 1),
  ('COc1ccc([S+](=O)([O-])N(C(C)=O)c2ccccc2/C=C/c2cc[n+]([O-])cc2)cc1 [IVX-214] (top concentration 46.0829 µM)', 0),
  ('CCc1c(C(=O)C(N)=O)c2c(OCC(=O)O)cccc2n1Cc1ccccc1 [Varespladib] (top concentration 46.0829 µM)', 1),
  ('C[C@H](Cc1ccc(O)c(O)c1)[C@@H](C)Cc1ccc(O)c(O)c1 [Masoprocol] (top concentration 46.0829 µM)', 1);

I'd appreciate it if you could say whether CN(C)CCOc1ccc(/C(=C(/CCCl)c2ccccc2)c2ccccc2)cc1 [Toremifene] (top concentration 46.0829 µM) has area under the dose-response curve at least equal to 500.
0

Please do the same for C=C(c1ccc(C(=O)O)cc1)c1cc2c(cc1C)C(C)(C)CCC2(C)C [Bexarotene] (top concentration 46.0829 µM) as well.
0

Now consider CN(C)C(=O)[C@H](O)[C@H](Cc1ccccc1)NC(=O)c1cc2cc(Cl)ccc2[nH]1 (top concentration 46.0829 µM) and answer again.
0

One more compound: COc1cc2c(NC3CCN(C(C)C)CC3)nc(C3CCCCC3)nc2cc1OCCCN1CCCC1 [UNC-0638] (top concentration 46.0829 µM)
0

Lookup COc1ccc2[nH]cc(CCNC(C)=O)c2c1 [Melatonin] (top concentration 46.0829 µM)
0

Now the compound C[S+]([O-])(=O)C1=CC=C(C=C1)C/2=C(/C(=O)OC2)C3=CC=CC=C3 [Rofecoxib] (top concentration 46.0829 µM)
1

// next record OC1=C(O)C2=C(\C=C/C(=O)O2)C=C1 [Daphnetin] (top concentration 46.0829 µM)
1

Another compound to check: COCCOc1nc(-c2ccc(Cl)c(Cl)c2)n(-c2ccc(NC(=O)CCl)cc2)n1 [MI-2] (top concentration 46.0829 µM)
0

Entry to check: CN(C)CCN(Cc1ccc(Cl)cc1)c1ccccn1.Cl [Halopyramine] (top concentration 46.0829 µM)
0

// query: FC(F)(F)c1ccc(Nc2nc3cc(Oc4ccnc(-c5ncc(C(F)(F)F)[nH]5)c4)ccc3[nH]2)cc1 [RAF-265 derivative] (top concentration 46.0829 µM)
0

Now this one: CCCCCOC(=O)NC\1=N\C(=O)N(\C=C1F)[C@@H]2O[C@H](C)[C@@H](O)[C@H]2O [Capecitabine] (top concentration 46.0829 µM)
0

This collection of values is drawn from the supplement of paper PMC5412046.
